Test system: HCT-116 colon
Assay: NCI-60 one-dose screen, 48 h
Settings: 10 µM unless noted
This is part of a sample that, as a whole, favours compounds with a hit. Of some 83,000 tested, about 20% had one in any assay. The source made the active and inactive calls. Rule for the calls: active = growth percent below 10; inactive = the rest.
Possible outcomes: active, inactive

molecule | assigned category
C[C@@H]1C[C@H]2C(=O)O[C@@H](C)[C@H](NC(=O)[C@H](Cc3cc(F)cc(F)c3)NC(=O)Nc3ccc(C4CC4)cc3F)C(=O)N3CCC[C@H]3C(=O)N3CCCC[C@H]3C(=O)N[C@@H](C)C(=O)N2C1 | active
N#Cc1c(Cl)nc(SCC2CO2)nc1-c1ccccc1 (configuration not stated) | inactive
CC[C@]12C=CCN3CC[C@@]4(c5ccc(OC)cc5N(C)[C@H]4[C@@](O)(C(=O)OC)[C@@H]1OC(=O)CCC(=O)O[C@H]1CC[C@H]4[C@@H]5CCC6=CC(=O)CC[C@@H]6[C@H]5CC[C@]14C)[C@@H]32 | active
COc1ccc(-c2cc(-c3ccccc3)nc(NCCNc3ccnc4cc(Cl)ccc34)n2)cc1 | active
COc1ccc2nc3c(cc2c1)C(=O)CC(c1ccccc1)C3 (configuration not stated) | inactive
COc1ccc2nc3c(cc2c1)C(=O)CC(C(F)(F)F)C3 (configuration not stated) | inactive
O=C(Nc1cccc(F)c1)c1cc(=O)[nH]c2cc(Br)ccc12 | inactive
O=[N+]([O-])c1ccc(O)c(-c2nc3ccccc3s2)c1 | inactive
COc1ncnc2c(-c3ccccc3)cn(COCc3ccccc3)c12 | inactive
CCOc1cc(NC(=O)c2ccccc2)c(OCC)cc1N | inactive
Cc1ccc(NC(=O)N[C@@H](Cc2cc(F)cc(F)c2)C(=O)N[C@@H]2C(=O)N3CCC[C@H]3C(=O)N3CCOC[C@H]3C(=O)N[C@@H](C)C(=O)N3C[C@H](C)C[C@H]3C(=O)O[C@H]2C)cc1 | inactive
CCCC(NC(=O)OCc1ccccc1)C(=O)O (configuration not stated) | inactive
O=C(NCCCNC(=O)OCc1ccc2c(Br)cc(Br)c(O)c2n1)OCc1ccc2c(Br)cc(Br)c(O)c2n1 | active
C=C(C)[C@@H]1CC[C@]2(C)[C@H](C(=O)C=C3[C@@H]4C[C@](C)(C(=O)N5CCN(C)CC5)CC[C@]4(C)CC[C@]32C)[C@@]1(C)CCC#N | active
O=C1Nc2ccccc2/C1=C/C(=O)c1ccc(N2CCOCC2)cc1 | inactive
CCOC(=O)C(c1ccccc1)N1C(=O)c2ccccc2C1=O (configuration not stated) | inactive
O=C(O)c1cccc(CN2CCN(c3cc4c(cc3F)c(=O)c(C(=O)O)cn4C3CC3)CC2)c1O | inactive
